Molecular target: T1, recombinant IL-3Rα ectodomain (human, UniProt P26951 19-305)
T1 construct: extracellular domain; also called recombinant IL-3Ra; biotinylated-IL-3Rα ectodomain
T1 sequence (looked up): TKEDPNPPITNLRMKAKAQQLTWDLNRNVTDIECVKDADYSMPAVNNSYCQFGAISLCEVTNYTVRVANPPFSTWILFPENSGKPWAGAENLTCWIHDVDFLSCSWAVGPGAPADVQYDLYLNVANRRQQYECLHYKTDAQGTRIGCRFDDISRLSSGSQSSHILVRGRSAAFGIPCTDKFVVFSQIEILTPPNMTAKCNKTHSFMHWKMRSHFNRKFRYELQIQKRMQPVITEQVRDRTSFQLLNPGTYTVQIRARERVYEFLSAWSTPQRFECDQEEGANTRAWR
Experiment: SPR ProteOn, immobilised IL-3Rα ectodomain
EXPERIMENTAL READOUT: koff (s⁻¹)
Numbers only here, please. The scale is s⁻¹.

>  <BINDER>
55B04 (VHH) VHH: EVQLVESGGGLVQPGGSLRLSCAASGINFRFNSMGWWRRRAPGKEREWVAAITSGDITNYRDSVRGRFTISRDNVKNTVYLQMNTLKLEDTAVYYCNTFPPIADYWGLGTQVTVSS

>  <READOUT UNIT>
s⁻¹

>  <koff>
0.00794

$$$$
>  <BINDER>
55A01 (VHH, also called CD123#2; A0110055A01) VHH: EVQLVESGGGSVQAGGSLRLSCTTSGRALNMYVMGWFRQAPGNEREFVAATSSSGGSTSYPDSVKGRFTISRDNAKNTVYLQMNSLKPEDTAAYRCAASPYVSTPTMNILEEYRYWGLGTQVTVSS

>  <READOUT UNIT>
s⁻¹

>  <koff>
0.0014

$$$$

Tell me measured koff for 57A07 (VHH, also called CD123#1; A0110057A07) VHH: EVQLVESGGGLVQAGGSLRLSCAASGSIFSGNVMGWYRRQAPGKEREWVAAIASGGSIYYRDSVKGRFTISRDNAKNTVYLQMNSLKPEDTAVYYCNSHPPTLPYWGLGTQVTVSS please. 0.00081
